- Test system: M14 melanoma
- MEASUREMENT NOTES: NCI tumour cell line growth inhibition, 48 h
REPORTED PROPERTY: TGI

>>> df
                                   compound  assay_value
0  CC(=O)NNc1nc(C)c(C(=O)/C=C/c2ccc(/C=C/C(=O)c3sc(NNC(C)=O)nc3C)cc2)s1     > 100 µM
1             COP(=O)(OC)C(NC=O)P(=O)(OC)OC     > 100 µM
2  O=c1c(O)cccn1CCCN(CCCn1cccc(O)c1=O)CCn1cccc(O)c1=O      60.2 µM
3            Cc1ccnc(NC(=S)Nc2cccc(Cl)c2)c1     > 100 µM
4  CCOC(=O)C(NC(=O)CC)(Nc1ccc(S(=O)(=O)Nc2nc(C)cc(C)n2)cc1)C(F)(F)F (stereo not drawn)     > 100 µM
5  COc1cc(C(c2cccc3ccccc23)N2C(=O)CCC2C(=O)NCc2ccccc2)cc(OC)c1OC (stereo not drawn)     > 100 µM
6  COc1ccc2c(-c3ccc(OCCN(C)C)cc3)c(Oc3ccc(Cl)cc3)c(=O)oc2c1      3.23 µM
7  CCOC(=O)/C(C#N)=C(/NNc1ccccc1)c1ccncc1C(=O)O     > 100 µM

---

- Test system: DU-145 prostate
- MEASUREMENT NOTES: NCI tumour cell line growth inhibition, 48 h
Measured TGI, listed per entry.
REPORTED PROPERTY: TGI

In [3]: df
Out[3]:
                                   compound  assay_value
0  CCN(CC)CCCC(C)Nc1c(-c2ccccc2)cnc2cc(Cl)ccc12 (stereo not given)      31.3 µM
1  Cc1oc2c(c1C(=O)N1CC[C@@H](N)C1)C(=O)c1c(c(O)c3ccccc3c1O)C2=O      15.5 µM
2  CCN1CCCC(Nc2cc(C)nc(/N=C(/N)Nc3ccc(Cl)c(Cl)c3)n2)C1 (stereo not given)      15.3 µM
3  CC/C=C\C/C=C/C=C1/C(=O)C=C[C@@H]1C/C=C\CCCC(=O)OC      17.4 µM
4  O/N=C1/C2CC3CC1(c1ccccc1)CC(/C3=N/O)/C2=N\O (stereo not given)     > 100 µM

---

- System: SK-OV-3 ovarian
- MEASUREMENT NOTES: NCI tumour cell line growth inhibition, 48 h
Where a SMILES comes first, the peptide text is derived from it. [ ]: non-standard residue; d: D form. The star is where a group is joined. ξ: configuration not given here. ξD = NC(CC(=O)O)C(=O)O; Ac3c = NC1(C(=O)O)CC1; Boc = CC(C)(C)OC(=O)*; OtBu = CC(C)(C)O*
A collection of compounds and their measured TGI

COMPOUND	TGI
ONC1=Nc2ccccc2OCc2cc(Br)c(Br)cc2COc2ccccc2N=C1NO	> 53.1 µM
CSCCCNC(=O)c1csc(-c2csc(CCNC(=O)CNC(=O)CNC(=O)CNC(=O)OC(C)(C)C)n2)n1	> 100 µM
CCCCCn1c(=O)c2c(=O)[nH][nH]c2c2ccccc21	> 100 µM
COC(=O)C1(NC(=O)C(CC(=O)OC(C)(C)C)NC(=O)OC(C)(C)C)CC1 (configuration not stated) (Boc-[ξD](OtBu)-[Ac3c]-OMe)	> 100 µM
O=c1[nH]cnc2sc(=S)c3c(c12)CCC3	> 100 µM
CN1CCc2c1nc(-c1cccnc1)c1c2N(C)CC1	> 100 µM
Clc1nc(Nc2nc3ccccc3[nH]2)nc(Cl)c1Cc1ccccc1	> 100 µM
CCOC(=O)/C(C#N)=C(/NNc1ccccc1)c1ccncc1C(=O)O	> 100 µM
COC1=CC(=O)c2c(O)c3c(c(O)c2C1=O)C[C@](C)(O)C[C@@H]3O	41.6 µM
O=S(=O)(O)c1cc(O)c2c(O)c(N=Nc3cccc4ccccc34)c(S(=O)(=O)O)cc2c1	> 100 µM
COc1cc2c(cc1-c1coc3cc(OCC=C(C)C)ccc3c1=O)OCO2	> 100 µM
COc1cccc(NC(=O)CC(=O)NNCC(=O)Nc2nnc(-c3ccc(N(CCC#N)S(=O)(=O)c4ccccc4)cc3)s2)c1	> 100 µM
O=C(NN1C(=O)CSC1c1ccc(F)cc1)C(O)c1ccccc1 (configuration not stated)	> 100 µM
COC/N=C(/N)NC#N	> 100 µM
CC1(C)CCCCCCCCCC(C)(CCCCCCCCCCCCO)C1=O (configuration not stated)	33.2 µM
O=C(N/C(=C\c1cc(Cl)ccc1Cl)c1nc2ccc(Cl)cc2[nH]1)c1ccccc1	51.8 µM
O=C(Nc1ccccc1Cl)c1cccc(NC2=C(Cl)C(=O)N(Cc3ccccc3)C2=O)c1	> 100 µM
CCOC(=O)c1c(N2CCOCC2)[nH]c(=O)c(C(c2cccs2)c2c(O)c(C(=O)OCC)c(N3CCOCC3)[nH]c2=O)c1O	> 100 µM
Cc1occ2c1C(=O)CC1C2[C@@H](O)CC2C(C)(C)CCC[C@]12C (some centres not stated)	> 100 µM
CC(=O)C12C[C@](C#N)(N3CCCCCC3)C1C=Cc1ccccc12 (some centres not stated)	> 100 µM
CC(C)(C)OC(=O)NCC(=O)NC1C/C(=N\O)c2sccc21 (configuration not stated)	> 100 µM
COC(=O)C#CCC1CCCC1C1SCCS1 (configuration not stated)	> 100 µM
Cc1ccc(S(=O)(=O)c2ccc([N+](=O)[O-])o2)cc1	35.2 µM
O=c1c(-c2ccccc2)coc2cc(OC/C(=N/O)c3ccc(F)cc3)ccc12	35.8 µM
CN(c1ccc(C#N)c(Cl)c1)C1CCC(NC(=O)c2ccc(N3CCN(C4CN(c5ccc6c(c5)C(=O)N(C5CCC(=O)NC5=O)C6=O)C4)CC3)cc2)CC1 (configuration not stated)	> 100 µM
O=NN(CCCl)C(=O)NC1CCC(=O)NC1=O (configuration not stated)	> 1010 µM
N#CC(C#N)=C(N)/C(C#N)=C/c1ccc2[nH]ccc2c1	> 100 µM
C=CCCCOC1[C@H](OCc2ccccc2)C(OCc2ccccc2)C(OC)O[C@@H]1CNC(=O)c1cccc(I)c1 (some centres not stated)	> 100 µM
COc1ccc(-c2ccc(/C=N/n3c(COc4ccccc4Cl)n[nH]c3=S)o2)c([N+](=O)[O-])c1	> 100 µM
CC(NNC(=O)c1ccncc1)c1ccc(Cl)c(Cl)c1 (configuration not stated)	> 100 µM
CC1=C(Cl)C[C@@H](/C(C)=C\Cl)O[C@@]1(O)C(Br)Br	> 100 µM
CC1(C)CC2=C(Sc3ccccc3N2)C(=O)C1C(=O)C(=O)Nc1cc(Cl)ccc1Cl (configuration not stated)	> 100 µM
O=C1CSC(c2ccccc2O)N1c1nnc(Cn2ccnc2)o1 (configuration not stated)	> 100 µM
CC(C)=Nn1cnc(C(=N)C#N)c1N	> 100 µM
CC(=O)O.CC(=O)O.CC(=O)O.CC(=O)O.[Rh].[Rh]	> 100 µM
Cc1nn(C)c2nc3ccc(Cl)cc3c(-c3ccccc3)c12	> 100 µM
CCNc1ncnc2c1nnn2CC	> 100 µM
CC1=C(C(=O)Nc2ccc(F)c(Cl)c2)C(c2ccccc2O)NC(=O)N1 (configuration not stated)	> 100 µM
Cc1c(C#N)c2nnn(-c3ccccc3)c(=O)n2c1-c1ccccc1	> 29.5 µM
COc1ccc(Oc2ccccc2NC(=O)CNC(=O)c2cccc3ccccc23)cc1	> 25 µM
Brc1cccc(-c2cc(-c3ccc4nccnc4c3)[nH]n2)c1	> 250 µM
C=CC(C)(C)c1cc([C@@H]2COc3cc(O)ccc3C2=O)c(O)c(O)c1OC	61 µM

---

Listed compounds paired with reported TGI
- System: HOP-62 NSCLC
- MEASUREMENT NOTES: NCI tumour cell line growth inhibition, 48 h
REPORTED PROPERTY: TGI (µM)

COMPOUND	REPORTED PROPERTY	MEASUREMENT UNIT	RESULT QUALIFIER	ASSAY VALUE
CN(C)Cc1cc(C(=O)/C=C/c2cccc(Cl)c2)cc(CN(C)C)c1O	TGI	µM	=	13.7
O=c1c(O)cccn1CCCN(CCCn1cccc(O)c1=O)CCn1cccc(O)c1=O	TGI	µM	>	100
Nc1ncnc2c1nnn2C1C=C(CO)C(O)C1O (configuration not stated)	TGI	µM	>	100
O=C1/C(=C/c2cccc(Br)c2)COc2ccc(O)c(O)c21	TGI	µM	=	3.74
COc1ccc2c(c1)/C(=C\c1c[nH]c3ccc(OC)cc13)C(=O)N2	TGI	µM	=	12.5
Clc1ccccc1NN(Cc1ccncc1)c1ccccc1Cl	TGI	µM	=	29.2
Cc1nc2c(sc(=S)n2-c2ccccc2)c2nc3ccccc3n12	TGI	µM	>	100
CC(C)C(C/C=C1/CC(CO)(COC(=O)C2CCCCC2)OC1=O)C(C)C (configuration not stated)	TGI	µM	=	26.9
Cc1ccc(S(=O)(=O)c2ccc([N+](=O)[O-])o2)cc1	TGI	µM	=	38.1
CCCCCn1c(=O)c2c(=O)[nH][nH]c2c2ccccc21	TGI	µM	>	100
O=c1[nH]cnc2sc(=S)c3c(c12)CCC3	TGI	µM	>	100
NC(=O)c1cccc(-c2cc(C(N)=O)ccc2Cl)c1	TGI	µM	>	100
N/C(=N\c1nc2ccccc2s1)NC(=NC1CCCCC1)NC1CCCCC1	TGI	µM	=	3.99
N#Cc1c(Nc2nc3ccccc3s2)c2ccccc2n2c1nc1ccccc12	TGI	µM	>	100
CC(=O)NNc1nc(C)c(C(=O)/C=C/c2ccc(/C=C/C(=O)c3sc(NNC(C)=O)nc3C)cc2)s1	TGI	µM	>	100
CN(c1ccc(C#N)c(Cl)c1)C1CCC(NC(=O)c2ccc(N3CCN(C4CN(c5ccc6c(c5)C(=O)N(C5CCC(=O)NC5=O)C6=O)C4)CC3)cc2)CC1 (configuration not stated)	TGI	µM	>	100
CCOP(=O)(OCC)C1(O)CC(n2cc(C)c(=O)[nH]c2=O)OC1CO (configuration not stated)	TGI	µM	>	100
